Target: Transient receptor potential cation channel subfamily A member 1 (Mus musculus, UniProt Q8BLA8)
Sequence (Q8BLA8 whole entry): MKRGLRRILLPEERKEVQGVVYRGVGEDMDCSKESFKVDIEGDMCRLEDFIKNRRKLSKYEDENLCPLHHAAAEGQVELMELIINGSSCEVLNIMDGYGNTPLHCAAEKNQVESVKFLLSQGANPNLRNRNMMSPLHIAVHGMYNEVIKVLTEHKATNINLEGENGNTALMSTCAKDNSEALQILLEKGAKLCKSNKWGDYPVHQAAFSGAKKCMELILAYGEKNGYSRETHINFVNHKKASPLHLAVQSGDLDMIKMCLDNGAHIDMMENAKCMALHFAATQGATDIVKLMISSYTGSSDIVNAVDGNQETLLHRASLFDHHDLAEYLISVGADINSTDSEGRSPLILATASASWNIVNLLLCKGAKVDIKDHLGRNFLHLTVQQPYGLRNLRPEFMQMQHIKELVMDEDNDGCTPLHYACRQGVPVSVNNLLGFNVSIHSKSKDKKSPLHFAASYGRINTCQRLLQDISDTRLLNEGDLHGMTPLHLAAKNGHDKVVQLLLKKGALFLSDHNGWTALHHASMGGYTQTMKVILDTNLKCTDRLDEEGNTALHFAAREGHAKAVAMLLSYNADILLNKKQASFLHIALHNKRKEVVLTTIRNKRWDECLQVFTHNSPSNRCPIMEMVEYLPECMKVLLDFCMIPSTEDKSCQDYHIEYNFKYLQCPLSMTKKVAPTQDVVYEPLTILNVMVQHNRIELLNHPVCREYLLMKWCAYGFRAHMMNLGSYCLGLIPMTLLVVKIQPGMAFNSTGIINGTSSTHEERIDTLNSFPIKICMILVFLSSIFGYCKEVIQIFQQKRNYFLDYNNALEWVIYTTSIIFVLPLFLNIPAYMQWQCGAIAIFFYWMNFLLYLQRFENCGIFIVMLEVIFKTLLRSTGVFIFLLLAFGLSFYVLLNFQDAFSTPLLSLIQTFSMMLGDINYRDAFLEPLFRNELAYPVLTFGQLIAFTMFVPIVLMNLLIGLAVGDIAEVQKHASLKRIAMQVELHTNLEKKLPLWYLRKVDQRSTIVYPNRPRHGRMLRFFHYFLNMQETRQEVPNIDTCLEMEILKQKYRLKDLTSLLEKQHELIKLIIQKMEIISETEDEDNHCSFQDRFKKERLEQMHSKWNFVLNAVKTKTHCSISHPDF
experimental-readout: pIC50
Keep it numeric: pIC50 is minus log10 of the concentration in mol/L.

Recorded pIC50 for O=C(NC[C@@H](Cc1ccccc1)N1CCC(O)(C(F)(F)F)CC1)C1(c2ccc(Cl)cc2)CCCC1 , please? 8.40

###

Assay: Drug uptake in Sprague-Dawley rat skin epidermal layer at 0.68 mg applied topically measured after 24 hrs
Assay type: ADME, tissue-based, Skin epidermis
Conditions: topical or ocular, read-out: Drug uptake
experimental-readout: concentration at 24 h
Please answer in the form of a number followed by its unit of measurement.

{"mol-smiles": "O[C@]12CCCC[C@@H]1CCC[C@H]2Nc1ccc(F)cc1", "measured-value": "86000 ng/g"}

Recorded concentration at 24 h for O=C(NC[C@@H](Cc1ccccc1)N1CCC(O)(C(F)(F)F)CC1)C1(c2ccc(Cl)cc2)CCCC1 , please? 3.13e+06 ng/g

###

Assay: Stability in rat liver microsomes
Format: ADME, microsome
Settings: read-out: Stability
experimental-readout: microsomal CLint (µL/min/mg)
Numeric answer only, unit µL/min/mg assumed.

Recorded microsomal CLint for O=C(NC[C@@H](Cc1ccccc1)N1CCC(O)(C(F)(F)F)CC1)C1(c2ccc(Cl)cc2)CCCC1 , please? 524

###

Molecular target: Voltage-gated inwardly rectifying potassium channel KCNH2 (Homo sapiens)
experimental-readout: pKi
Keep it numeric: pKi is minus log10 of the concentration in mol/L.

Form: Entry = O=C(NC[C@@H](Cc1ccccc1)N1CCC(O)(C(F)(F)F)CC1)C1(c2ccc(Cl)cc2)CCCC1 | System = Voltage-gated inwardly rectifying potassium channel KCNH2 (Homo sapiens) | pKi = ____ 4.59

###

Molecular target: Transient receptor potential cation channel subfamily A member 1 (Homo sapiens)
Sequence (O75762 whole entry, the tested form may be a part): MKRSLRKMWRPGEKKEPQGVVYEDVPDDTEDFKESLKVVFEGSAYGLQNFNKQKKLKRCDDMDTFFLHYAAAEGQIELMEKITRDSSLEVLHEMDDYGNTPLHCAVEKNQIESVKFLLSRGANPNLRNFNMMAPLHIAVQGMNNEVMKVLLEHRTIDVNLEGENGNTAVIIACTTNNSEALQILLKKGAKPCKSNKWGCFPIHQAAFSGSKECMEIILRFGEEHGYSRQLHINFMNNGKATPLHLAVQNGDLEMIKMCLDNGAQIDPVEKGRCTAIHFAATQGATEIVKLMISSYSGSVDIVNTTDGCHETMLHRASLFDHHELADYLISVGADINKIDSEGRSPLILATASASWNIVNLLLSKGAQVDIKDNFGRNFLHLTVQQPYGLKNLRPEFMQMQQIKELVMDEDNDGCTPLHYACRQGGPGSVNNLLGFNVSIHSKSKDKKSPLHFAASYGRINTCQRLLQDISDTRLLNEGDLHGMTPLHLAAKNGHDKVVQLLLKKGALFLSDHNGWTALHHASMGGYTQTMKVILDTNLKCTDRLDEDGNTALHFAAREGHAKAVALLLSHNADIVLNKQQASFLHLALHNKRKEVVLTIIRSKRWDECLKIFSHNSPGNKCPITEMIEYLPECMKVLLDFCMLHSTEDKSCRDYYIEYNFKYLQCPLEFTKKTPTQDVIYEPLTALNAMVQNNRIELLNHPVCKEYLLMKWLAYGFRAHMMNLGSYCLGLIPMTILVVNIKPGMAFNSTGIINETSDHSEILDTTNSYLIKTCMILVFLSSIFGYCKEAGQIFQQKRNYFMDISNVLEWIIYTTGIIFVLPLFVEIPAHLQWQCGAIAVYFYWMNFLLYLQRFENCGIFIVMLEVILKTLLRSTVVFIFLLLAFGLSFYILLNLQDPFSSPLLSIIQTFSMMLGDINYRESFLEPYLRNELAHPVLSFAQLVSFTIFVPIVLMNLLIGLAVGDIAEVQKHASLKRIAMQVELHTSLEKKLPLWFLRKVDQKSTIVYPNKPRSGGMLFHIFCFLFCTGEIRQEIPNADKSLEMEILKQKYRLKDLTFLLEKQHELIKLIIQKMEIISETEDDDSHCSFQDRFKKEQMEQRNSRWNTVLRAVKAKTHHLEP
Assay: Antagonist activity at human TRPA1 oS5 chimera containing (870 to 896 residues) expressed in 293-T-REx cells at holding potential of 15 mV measured after 1 min by PatchXpress electrophysiology assay
Type: cell-based
experimental-readout: IC50
Please answer in the form of a number followed by its unit of measurement.

Recorded IC50 for O=C(NC[C@@H](Cc1ccccc1)N1CCC(O)(C(F)(F)F)CC1)C1(c2ccc(Cl)cc2)CCCC1 , please? 1580 nM

###

Test: Clearance in rat
Format: ADME, organism-based
Settings: in vivo
experimental-readout: clearance (mL/min/kg)
Numeric answer only, unit mL/min/kg assumed.

Recorded clearance for O=C(NC[C@@H](Cc1ccccc1)N1CCC(O)(C(F)(F)F)CC1)C1(c2ccc(Cl)cc2)CCCC1 , please? 42

###

Assay: Dissociation constant, pKa of the compound
Type: physicochemical
experimental-readout: pKa
Just the number.

Recorded pKa for O=C(NC[C@@H](Cc1ccccc1)N1CCC(O)(C(F)(F)F)CC1)C1(c2ccc(Cl)cc2)CCCC1 , please? 5.9

###

Experiment: Fraction unbound in dog plasma
Assay type: ADME, cell-free, Canis lupus familiaris
experimental-readout: fraction unbound

Recorded fraction unbound for O=C(NC[C@@H](Cc1ccccc1)N1CCC(O)(C(F)(F)F)CC1)C1(c2ccc(Cl)cc2)CCCC1 , please? 0.0008

###

Assay: Half life in rat
Format: ADME, organism-based
Conditions: in vivo
experimental-readout: half-life
Please answer in the form of a number followed by its unit of measurement.

Recorded half-life for O=C(NC[C@@H](Cc1ccccc1)N1CCC(O)(C(F)(F)F)CC1)C1(c2ccc(Cl)cc2)CCCC1 , please? 4.4 h

###

Target: Cytochrome P450 2C9 (Homo sapiens, UniProt P11712)
Sequence (P11712 whole entry): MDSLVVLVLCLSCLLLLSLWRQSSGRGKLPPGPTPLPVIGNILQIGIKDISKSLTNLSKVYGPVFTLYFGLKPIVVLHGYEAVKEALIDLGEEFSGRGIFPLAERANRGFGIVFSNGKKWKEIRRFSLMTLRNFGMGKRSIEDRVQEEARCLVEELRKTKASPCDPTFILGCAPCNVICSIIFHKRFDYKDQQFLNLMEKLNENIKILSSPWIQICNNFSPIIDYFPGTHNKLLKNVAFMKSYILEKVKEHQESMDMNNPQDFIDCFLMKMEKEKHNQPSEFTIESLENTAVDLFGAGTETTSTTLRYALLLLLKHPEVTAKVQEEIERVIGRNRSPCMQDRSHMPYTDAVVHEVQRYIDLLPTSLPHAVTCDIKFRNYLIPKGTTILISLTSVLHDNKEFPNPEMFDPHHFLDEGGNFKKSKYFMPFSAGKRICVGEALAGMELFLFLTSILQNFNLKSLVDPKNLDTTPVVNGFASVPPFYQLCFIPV
experimental-readout: IC50 (µM)
Numeric answer only, unit µM assumed.

Form: Entry = O=C(NC[C@@H](Cc1ccccc1)N1CCC(O)(C(F)(F)F)CC1)C1(c2ccc(Cl)cc2)CCCC1 | System = Cytochrome P450 2C9 (Homo sapiens, UniProt P11712) | IC50 = ____ 11.4

###

Experiment: Stability in human liver microsomes assessed as metabolic turnover number at 10 uM after 15 mins by LC-MS/UV analysis
Format: ADME, microsome
Details: read-out: Stability
experimental-readout: microsomal CLint at 10 µM

{"compound": "O=C(NCC(Cc1ccc(F)cc1)N1C2CCC1CC(O)(C(F)(F)F)C2)C1(c2ccc(F)cc2)CCCC1 (racemic)", "microsomal CLint at 10 µM": "> 320 µL/min/mg"}
{"compound": "Cc1nc(C(=O)NCC(Cc2ccccc2)N2CCC(O)(C(F)(F)F)CC2)c(C(F)(F)F)o1 (racemic)", "microsomal CLint at 10 µM": "146 µL/min/mg"}

Recorded microsomal CLint at 10 µM for CC(C)(C)c1ccc(CC(=O)NCC(Cc2ccccc2)N2CCC(O)(C(F)(F)F)CC2)cc1 (racemic) , please? > 320 µL/min/mg

###

Assay: Volume of distribution at steady state in rat
Type: ADME, organism-based
Settings: in vivo, read-out: Vdss
experimental-readout: Vd (L/kg)
Numeric answer only, unit L/kg assumed.

Recorded Vd for O=C(NC[C@@H](Cc1ccccc1)N1CCC(O)(C(F)(F)F)CC1)C1(c2ccc(Cl)cc2)CCCC1 , please? 3.99

###

Biological target: Voltage-gated inwardly rectifying potassium channel KCNH2 (Homo sapiens, UniProt Q12809)
Sequence (Q12809 whole entry): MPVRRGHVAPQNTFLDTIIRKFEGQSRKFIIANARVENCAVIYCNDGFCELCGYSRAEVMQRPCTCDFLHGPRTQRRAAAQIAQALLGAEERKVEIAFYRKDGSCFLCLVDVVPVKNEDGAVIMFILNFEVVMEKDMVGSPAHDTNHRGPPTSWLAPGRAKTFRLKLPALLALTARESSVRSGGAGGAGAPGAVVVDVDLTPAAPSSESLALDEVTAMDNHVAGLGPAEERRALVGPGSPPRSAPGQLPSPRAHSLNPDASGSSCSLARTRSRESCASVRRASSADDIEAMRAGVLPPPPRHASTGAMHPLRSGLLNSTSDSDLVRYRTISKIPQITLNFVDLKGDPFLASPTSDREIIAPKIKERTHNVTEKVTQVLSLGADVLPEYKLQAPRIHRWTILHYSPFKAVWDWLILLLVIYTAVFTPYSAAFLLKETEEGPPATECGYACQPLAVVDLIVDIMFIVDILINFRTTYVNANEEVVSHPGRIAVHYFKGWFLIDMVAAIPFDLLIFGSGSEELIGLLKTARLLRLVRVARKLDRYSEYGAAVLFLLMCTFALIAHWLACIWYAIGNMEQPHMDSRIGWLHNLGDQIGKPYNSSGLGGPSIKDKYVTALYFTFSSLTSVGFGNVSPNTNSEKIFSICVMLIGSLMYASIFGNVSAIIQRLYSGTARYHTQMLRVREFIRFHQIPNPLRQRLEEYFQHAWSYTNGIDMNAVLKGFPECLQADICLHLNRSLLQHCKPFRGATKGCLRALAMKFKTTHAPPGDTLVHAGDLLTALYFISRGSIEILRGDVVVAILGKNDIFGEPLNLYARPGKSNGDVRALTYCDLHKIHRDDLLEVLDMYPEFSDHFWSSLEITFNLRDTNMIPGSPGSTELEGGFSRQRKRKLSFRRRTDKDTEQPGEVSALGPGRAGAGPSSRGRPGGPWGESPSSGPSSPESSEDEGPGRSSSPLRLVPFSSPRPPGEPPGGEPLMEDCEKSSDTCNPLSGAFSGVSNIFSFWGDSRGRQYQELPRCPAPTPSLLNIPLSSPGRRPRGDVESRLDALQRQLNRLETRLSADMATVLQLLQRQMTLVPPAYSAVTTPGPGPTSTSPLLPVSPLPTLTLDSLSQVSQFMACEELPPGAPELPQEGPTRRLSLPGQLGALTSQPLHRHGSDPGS
Experiment: Inhibition of human ERG
pIC50: −log10 of the molar value.
experimental-readout: pIC50

Form: Entry = O=C(NC[C@@H](Cc1ccccc1)N1CCC(O)(C(F)(F)F)CC1)C1(c2ccc(Cl)cc2)CCCC1 | System = Voltage-gated inwardly rectifying potassium channel KCNH2 (Homo sapiens, UniProt Q12809) | pIC50 = ____ < 5.52

###

Molecular target: Transient receptor potential cation channel subfamily A member 1 (Homo sapiens)
Test: Antagonist activity at full length human TRPA1 expressed in 293-T-REx cells by FLIPR assay
pIC50: −log10 of the molar value.
experimental-readout: pIC50

Recorded pIC50 for O=C(NCC(Cc1ccc(F)cc1)N1CCC(O)C1)C1(c2ccc(F)cc2)CCCC1 (racemic) , please? < 5.00

Recorded pIC50 for CC(C)(C)c1ccc(CC(=O)NCC(Cc2ccccc2)N2CCC(O)(C(F)(F)F)CC2)cc1 (racemic) , please? < 5.00

Recorded pIC50 for O=C1CCC2(CCN(C(CNC(=O)C3(c4ccc(F)cc4)CC3)Cc3ccc(F)cc3)CC2)N1 (racemic) , please? < 5.00

Recorded pIC50 for O=C(NCC(Cc1ccc(F)cc1)N1CCC2(C1)CC2(F)F)C1(c2ccc(F)cc2)CCCC1 (racemic) , please? < 5.00

Recorded pIC50 for CCCC(C)(C)C(=O)NC[C@@H](Cc1ccccc1)N1CCC(O)(C(F)(F)F)CC1 , please? 7.15

Recorded pIC50 for Cc1nc(C(=O)NCC(Cc2ccccc2)N2CCC(O)(C(F)(F)F)CC2)c(C(F)(F)F)o1 (racemic) , please? < 5.00

Recorded pIC50 for O=C(NCC(Cc1ccccc1)N1CCC(O)(C(F)(F)F)CC1)C1(c2ccc(Cl)cc2)CCCC1 (racemic) , please? 6.43

Recorded pIC50 for CCCC(C)(C)C(=O)NC[C@H](Cc1ccccc1)N1CCC(O)(C(F)(F)F)CC1 , please? 5.77

Recorded pIC50 for O=C(NCC(Cc1ccc(F)cc1)N1CC2CCC1C2)C1(c2ccc(F)cc2)CC1 (racemic) , please? < 5.00

Recorded pIC50 for O=C(NCC(Cc1ccc(F)cc1)N1CCC2(CC1)COC2)C1(c2ccc(F)cc2)CCCC1 (racemic) , please? < 5.00

###

Target: Transient receptor potential cation channel subfamily A member 1 (Homo sapiens)
Experiment: Antagonist activity at full length human TRPA1 at holding potential of 15 mV measured after 1 min by PatchXpress electrophysiology assay
experimental-readout: pIC50
Keep it numeric: pIC50 is minus log10 of the concentration in mol/L.

Recorded pIC50 for CC(C)c1csc(C(=O)NCC(Cc2ccccc2)N2CCC(O)(C(F)(F)F)CC2)n1 (racemic) , please? 6.80

Recorded pIC50 for CC1(C(=O)NCC(Cc2ccccc2)N2CCC(O)(C(F)(F)F)CC2)CCCCC1 (racemic) , please? 6.07

Recorded pIC50 for O=C(NC[C@@H](Cc1ccccc1)N1CCC(O)(C(F)(F)F)CC1)C1(c2ccc(Cl)cc2)CC1 , please? 7.28

Recorded pIC50 for CN1CCC(CC(CNC(=O)C2(c3ccc(Cl)cc3)CCCC2)N2CCC(O)(C(F)(F)F)CC2)CC1 (racemic) , please? 4.57

Recorded pIC50 for O=C(NCC(Cc1ccccc1)N1CCC(O)(C(F)(F)F)CC1)C1(C(F)(F)F)CC1 (racemic) , please? 6.00

###

Assay: Kinetic solubility of the compound at pH 6.5
Assay type: physicochemical
Conditions: buffer, read-out: Kinetic_solubility
experimental-readout: solubility kinetic
Please answer in the form of a number followed by its unit of measurement.

Recorded solubility kinetic for O=C(NC[C@@H](Cc1ccccc1)N1CCC(O)(C(F)(F)F)CC1)C1(c2ccc(Cl)cc2)CCCC1 , please? 12 µM
